assay: In vivo formation of NAFB1 and NAHFB1 in rat kidney and liver (HPLC-ESI-MS/MS); design: unit not given here; settings: Kidney; treatment FB1 1 mg/kg BW ip, 5 days
quantity_measured: N-acyl-derivative in tissue sample, analysis b

Field: example entries. Status: answers known.
compound: CCCCCCCCCCCCCCCCCCCCCCCC(=O)NC(C)C(O)CC(O)CCCCC(O)CC(C)CC(OC(=O)CC(CC(=O)O)C(=O)O)C(OC(=O)CC(CC(=O)O)C(=O)O)C(C)CCCC (stereo not drawn)
test_result: 2,4

compound: CCCCCCCCC=CCCCCCCCCCCCCCC(=O)NC(C)C(O)CC(O)CCCCC(O)CC(C)CC(OC(=O)CC(CC(=O)O)C(=O)O)C(OC(=O)CC(CC(=O)O)C(=O)O)C(C)CCCC (stereo not drawn)
test_result: 4,6

--- query ---
input: Recorded N-acyl-derivative in tissue sample, analysis b for CCCCCCCCCCCCCCCCCCCCCC(=O)NC(C)C(O)CC(O)CCCCC(O)CC(C)CC(OC(=O)CC(CC(=O)O)C(=O)O)C(OC(=O)CC(CC(=O)O)C(=O)O)C(C)CCCC (stereo not drawn) , please?
output: 0,6

* * *

So I've got a bunch of compounds here, and I need their N-acyl-derivative in tissue sample, analysis b values.
assay: In vivo formation of NAFB1 and NAHFB1 in rat kidney and liver (HPLC-ESI-MS/MS); parameters: unit not given here; settings: Kidney; treatment FB1 2 mg/kg BW ip, 5 days

compound: CCCCCCCC/C=C\CCCCCCCCCCCCCC(=O)N[C@@H](C)[C@@H](O)C[C@H](O)CCCC[C@@H](O)C[C@H](C)C[C@H](O)[C@H](O)[C@H](C)CCCC
test_result: 0,0

Provide N-acyl-derivative in tissue sample, analysis b for all items below, preserving their order.
1. CCCCCCCCCCCCCCCC(=O)NC(C)C(O)CC(O)CCCCC(O)CC(C)CC(OC(=O)CC(CC(=O)O)C(=O)O)C(OC(=O)CC(CC(=O)O)C(=O)O)C(C)CCCC (stereo not drawn)
2. CCCCCCCCCCCCCCCCCCCC(=O)NC(C)C(O)CC(O)CCCCC(O)CC(C)CC(OC(=O)CC(CC(=O)O)C(=O)O)C(OC(=O)CC(CC(=O)O)C(=O)O)C(C)CCCC (stereo not drawn)

output:
1. 13,8
2. 0,6

* * *

What N-acyl-derivative in tissue sample, mean was measured for each of the following?
assay: In vivo formation of NAFB1 and NAHFB1 in rat kidney and liver (HPLC-ESI-MS/MS); design: unit not given here; details: Liver; treatment FB1 0,5 mg/kg BW ip, 5 days

# example entries with known answers
compound: CCCCCCCCCCCCCCCCCCCCCCCC(=O)NC(C)C(O)CC(O)CCCCC(O)CC(C)CC(OC(=O)CC(CC(=O)O)C(=O)O)C(OC(=O)CC(CC(=O)O)C(=O)O)C(C)CCCC (stereo not drawn)
N-acyl-derivative in tissue sample, mean: 12,0

compound: CCCCCCCCCCCCCCCCCCCCCC(=O)NC(C)C(O)CC(O)CCCCC(O)CC(C)CC(OC(=O)CC(CC(=O)O)C(=O)O)C(OC(=O)CC(CC(=O)O)C(=O)O)C(C)CCCC (stereo not drawn)
N-acyl-derivative in tissue sample, mean: 4,7

compound: CCCCCCCCCCCCCCCCCC(=O)NC(C)C(O)CC(O)CCCCC(O)CC(C)CC(OC(=O)CC(CC(=O)O)C(=O)O)C(OC(=O)CC(CC(=O)O)C(=O)O)C(C)CCCC (stereo not drawn)
N-acyl-derivative in tissue sample, mean: 2,8

compound: CCCCCCCCCCCCCCCC(=O)NC(C)C(O)CC(O)CCCCC(O)CC(C)CC(OC(=O)CC(CC(=O)O)C(=O)O)C(OC(=O)CC(CC(=O)O)C(=O)O)C(C)CCCC (stereo not drawn)
N-acyl-derivative in tissue sample, mean: 6,0

compound: CCCCCCCCCCCCCCCCCCCC(=O)NC(C)C(O)CC(O)CCCCC(O)CC(C)CC(OC(=O)CC(CC(=O)O)C(=O)O)C(OC(=O)CC(CC(=O)O)C(=O)O)C(C)CCCC (stereo not drawn)
N-acyl-derivative in tissue sample, mean: 0,0

compound: CCCCCCCCCCCCCCCCCC(=O)N[C@@H](C)[C@@H](O)C[C@H](O)CCCC[C@@H](O)C[C@H](C)C[C@H](O)[C@H](O)[C@H](C)CCCC
N-acyl-derivative in tissue sample, mean: 0,2

Hello, I would appreciate it if you could give N-acyl-derivative in tissue sample, mean for each entry below.
1. CCCCCCCCCCCCCCCC(=O)N[C@@H](C)[C@@H](O)C[C@H](O)CCCC[C@@H](O)C[C@H](C)C[C@H](O)[C@H](O)[C@H](C)CCCC
2. CCCCCCCCCCCCCCCCCCCCCC(=O)N[C@@H](C)[C@@H](O)C[C@H](O)CCCC[C@@H](O)C[C@H](C)C[C@H](O)[C@H](O)[C@H](C)CCCC
3. CCCCCCCC/C=C\CCCCCCCCCCCCCC(=O)N[C@@H](C)[C@@H](O)C[C@H](O)CCCC[C@@H](O)C[C@H](C)C[C@H](O)[C@H](O)[C@H](C)CCCC
4. CCCCCCCCC=CCCCCCCCCCCCCCC(=O)NC(C)C(O)CC(O)CCCCC(O)CC(C)CC(OC(=O)CC(CC(=O)O)C(=O)O)C(OC(=O)CC(CC(=O)O)C(=O)O)C(C)CCCC (stereo not drawn)
5. CCCCCCCCCCCCCCCCCCCCCCCC(=O)N[C@@H](C)[C@@H](O)C[C@H](O)CCCC[C@@H](O)C[C@H](C)C[C@H](O)[C@H](O)[C@H](C)CCCC
6. CCCCCCCCCCCCCCCCCCCC(=O)N[C@@H](C)[C@@H](O)C[C@H](O)CCCC[C@@H](O)C[C@H](C)C[C@H](O)[C@H](O)[C@H](C)CCCC

output:
1: 0,3; 2: 0,0; 3: 0,0; 4: 10,5; 5: 0,0; 6: 0,1

* * *

Assay: In vivo formation of NAFB1 and NAHFB1 in rat kidney and liver (HPLC-ESI-MS/MS)
Set-up: unit not given here
Conditions: Kidney; treatment FB1 0,5 mg/kg BW ip, 5 days
Description: The study protocol was approved by the Institutional Animal Care and Use Committee, Richard B. Russell Agricultural Research Center, Athens, GA. […] In order to compare the effects of FB1 and HFB1, dosages will be expressed as molar concentrations and, on this basis, the high dose of FB1 is roughly equivalent to that of the positive control dose of HFB1. […]
Hi there, I'd appreciate the recorded N-acyl-derivative in tissue sample, analysis a for every entry that follows.

See these solved cases before continuing.
molecule: CCCCCCCCCCCCCCCC(=O)NC(C)C(O)CC(O)CCCCC(O)CC(C)CC(OC(=O)CC(CC(=O)O)C(=O)O)C(OC(=O)CC(CC(=O)O)C(=O)O)C(C)CCCC (stereo not drawn)
test_result: 7,4
//
molecule: CCCCCCCCCCCCCCCCCCCCCC(=O)NC(C)C(O)CC(O)CCCCC(O)CC(C)CC(OC(=O)CC(CC(=O)O)C(=O)O)C(OC(=O)CC(CC(=O)O)C(=O)O)C(C)CCCC (stereo not drawn)
test_result: 0,7

input: Would you mind telling me what N-acyl-derivative in tissue sample, analysis a value was observed for `CCCCCCCCCCCCCCCC(=O)N[C@@H](C)[C@@H](O)C[C@H](O)CCCC[C@@H](O)C[C@H](C)C[C@H](O)[C@H](O)[C@H](C)CCCC` ?
output: 0,0

* * *

assay: In vivo formation of NAFB1 and NAHFB1 in rat kidney and liver (HPLC-ESI-MS/MS); parameters: unit not given here; details: Kidney; treatment FB1 2 mg/kg BW ip, 5 days
quantity_measured: N-acyl-derivative in tissue sample, mean

Use these answered entries as a reference point.
molecule: CCCCCCCCCCCCCCCCCCCCCCCC(=O)N[C@@H](C)[C@@H](O)C[C@H](O)CCCC[C@@H](O)C[C@H](C)C[C@H](O)[C@H](O)[C@H](C)CCCC
quantity_measured: N-acyl-derivative in tissue sample, mean
test_result: 0,0
--
molecule: CCCCCCCC/C=C\CCCCCCCCCCCCCC(=O)N[C@@H](C)[C@@H](O)C[C@H](O)CCCC[C@@H](O)C[C@H](C)C[C@H](O)[C@H](O)[C@H](C)CCCC
quantity_measured: N-acyl-derivative in tissue sample, mean
test_result: 0,0
--
molecule: CCCCCCCCCCCCCCCCCC(=O)NC(C)C(O)CC(O)CCCCC(O)CC(C)CC(OC(=O)CC(CC(=O)O)C(=O)O)C(OC(=O)CC(CC(=O)O)C(=O)O)C(C)CCCC (stereo not drawn)
quantity_measured: N-acyl-derivative in tissue sample, mean
test_result: 3,4
--
molecule: CCCCCCCCCCCCCCCC(=O)NC(C)C(O)CC(O)CCCCC(O)CC(C)CC(OC(=O)CC(CC(=O)O)C(=O)O)C(OC(=O)CC(CC(=O)O)C(=O)O)C(C)CCCC (stereo not drawn)
quantity_measured: N-acyl-derivative in tissue sample, mean
test_result: 13,0
--
molecule: CCCCCCCCCCCCCCCCCCCCCCCC(=O)NC(C)C(O)CC(O)CCCCC(O)CC(C)CC(OC(=O)CC(CC(=O)O)C(=O)O)C(OC(=O)CC(CC(=O)O)C(=O)O)C(C)CCCC (stereo not drawn)
quantity_measured: N-acyl-derivative in tissue sample, mean
test_result: 4,7

I'm hoping you can list N-acyl-derivative in tissue sample, mean for every molecule here, please.
1. CCCCCCCCCCCCCCCCCCCC(=O)N[C@@H](C)[C@@H](O)C[C@H](O)CCCC[C@@H](O)C[C@H](C)C[C@H](O)[C@H](O)[C@H](C)CCCC
2. CCCCCCCCC=CCCCCCCCCCCCCCC(=O)NC(C)C(O)CC(O)CCCCC(O)CC(C)CC(OC(=O)CC(CC(=O)O)C(=O)O)C(OC(=O)CC(CC(=O)O)C(=O)O)C(C)CCCC (stereo not drawn)
3. CCCCCCCCCCCCCCCCCCCCCC(=O)N[C@@H](C)[C@@H](O)C[C@H](O)CCCC[C@@H](O)C[C@H](C)C[C@H](O)[C@H](O)[C@H](C)CCCC
4. CCCCCCCCCCCCCCCCCC(=O)N[C@@H](C)[C@@H](O)C[C@H](O)CCCC[C@@H](O)C[C@H](C)C[C@H](O)[C@H](O)[C@H](C)CCCC

output:
["0,0", "4,9", "0,0", "0,1"]

Respectfully, I request N-acyl-derivative in tissue sample, mean for each entry included below.
1. CCCCCCCCCCCCCCCC(=O)N[C@@H](C)[C@@H](O)C[C@H](O)CCCC[C@@H](O)C[C@H](C)C[C@H](O)[C@H](O)[C@H](C)CCCC
2. CCCCCCCCCCCCCCCCCCCC(=O)NC(C)C(O)CC(O)CCCCC(O)CC(C)CC(OC(=O)CC(CC(=O)O)C(=O)O)C(OC(=O)CC(CC(=O)O)C(=O)O)C(C)CCCC (stereo not drawn)

output:
1. 0,4
2. 0,3

input: Would you mind telling me what N-acyl-derivative in tissue sample, mean value was observed for CCCCCCCCCCCCCCCCCCCCCC(=O)NC(C)C(O)CC(O)CCCCC(O)CC(C)CC(OC(=O)CC(CC(=O)O)C(=O)O)C(OC(=O)CC(CC(=O)O)C(=O)O)C(C)CCCC (stereo not drawn) ?
output: 1,2

Data provenance is paper PMC4298654.
